molecular target: h5-HT2A receptor (Homo sapiens, UniProt P28223); assay: Functional activity, FLIPR calcium assay, CHO cells expressing h5-HT2A; details: FLIPR, CHO cells, Fluo 3-AM
Sequence (P28223 whole entry): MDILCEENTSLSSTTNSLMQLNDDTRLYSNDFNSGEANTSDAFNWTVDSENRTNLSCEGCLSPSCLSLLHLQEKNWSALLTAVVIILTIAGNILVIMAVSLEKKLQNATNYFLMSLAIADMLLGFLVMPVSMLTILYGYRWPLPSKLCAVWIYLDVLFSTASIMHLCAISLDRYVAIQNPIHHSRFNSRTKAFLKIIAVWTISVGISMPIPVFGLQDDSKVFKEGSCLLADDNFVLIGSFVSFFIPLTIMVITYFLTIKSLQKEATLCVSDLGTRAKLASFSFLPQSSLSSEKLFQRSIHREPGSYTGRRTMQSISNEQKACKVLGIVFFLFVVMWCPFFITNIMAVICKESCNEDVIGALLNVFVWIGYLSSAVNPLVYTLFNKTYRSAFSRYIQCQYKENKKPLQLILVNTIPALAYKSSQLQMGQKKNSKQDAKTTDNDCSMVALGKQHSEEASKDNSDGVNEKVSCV
pEC50: −log10 of the molar value. Where a name gives a salt, the structure may show the parent alone.
QUANTITY NAME: pEC50

{"COMPOUND": "C[C@H](N)CN1CCc2ccc3c(c21)OCCO3 [Compound 6, fumarate]", "TARGET SYSTEM": "h5-HT2A receptor (Homo sapiens, UniProt P28223)", "INEQUALITY OPERATOR": "=", "TEST VALUE": 6.51}
{"COMPOUND": "C[C@@H](N)CN1CCc2ccc3ccccc3c21", "TARGET SYSTEM": "h5-HT2A receptor (Homo sapiens, UniProt P28223)", "INEQUALITY OPERATOR": "<", "TEST VALUE": 5.00}
{"COMPOUND": "C[C@H](N)CN1CCc2ccc3c(c21)CCCO3 [Compound 4, fumarate]", "TARGET SYSTEM": "h5-HT2A receptor (Homo sapiens, UniProt P28223)", "INEQUALITY OPERATOR": "=", "TEST VALUE": 6.30}
{"COMPOUND": "C[C@H](N)CN1CCc2ccc3c(c21)CCO3 [Compound 3, fumarate]", "TARGET SYSTEM": "h5-HT2A receptor (Homo sapiens, UniProt P28223)", "INEQUALITY OPERATOR": "=", "TEST VALUE": 6.86}
